These measurements were taken from BindingDB's records for doi:10.1016/s0960-894x(00)00138-4.

- target.entity: Cationic trypsin (Bos taurus)
- method: In vitro inhibition of bovine trypsin.
measured.endpoint: log10 of Ki (log10 of the value in µM)
Give log10 of Ki, with Ki taken in µM.

Below, each entry is followed by its recorded log10 of Ki result.
1) CN(C)C(=O)COc1ccc2c3ccccc3n(Cc3ccc4ccc(C(=N)N)cc4c3)c2c1	-1.05
2) N=C(N)c1ccc(-n2ccc3ccc(NCc4cccc(C(=N)N)c4)cc32)cc1	0.21
3) N=C(N)c1ccc(-n2c3ccccc3c3ccc(OCc4ccc5ccc(C(=N)N)cc5c4)cc32)cc1	-0.29
4) CCOC(=O)c1cc2ccc(OC3CCN(C(C)=N)CC3)cc2n1Cc1ccc2ccc(C(=N)N)cc2c1	-1.70
5) N=C(N)c1ccc(-n2ccc3ccc(NC(=O)c4cccc(C(=N)N)c4)cc32)cc1	-0.39

Now for a further molecule.
**Query** For the molecule N=C(N)c1ccc(-n2ccc3ccc(NCc4ccc5ccc(C(=N)N)cc5c4)cc32)cc1 , report log10 of Ki.
**Result** -0.52
